systemName: human orexin-2 receptor (Homo sapiens (Human), UniProt O43614)
Sequence (O43614 whole entry): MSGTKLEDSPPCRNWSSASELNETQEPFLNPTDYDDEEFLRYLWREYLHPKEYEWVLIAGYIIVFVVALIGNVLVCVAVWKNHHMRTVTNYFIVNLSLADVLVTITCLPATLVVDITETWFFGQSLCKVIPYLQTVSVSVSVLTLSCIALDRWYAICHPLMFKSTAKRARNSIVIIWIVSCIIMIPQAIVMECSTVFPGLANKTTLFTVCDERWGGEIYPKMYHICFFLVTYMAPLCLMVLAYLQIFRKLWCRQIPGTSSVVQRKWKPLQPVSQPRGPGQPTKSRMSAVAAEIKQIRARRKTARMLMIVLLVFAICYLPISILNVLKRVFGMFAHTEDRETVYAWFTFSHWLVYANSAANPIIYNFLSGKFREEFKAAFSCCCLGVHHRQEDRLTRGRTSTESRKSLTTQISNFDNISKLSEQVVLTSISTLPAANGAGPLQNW
testProtocol: FLIPR Ca2+ Flux Assay, orexin-2 receptor
Assay type: cell-based
reportedConditions: CHO cells expressing the human orexin-2 receptor; agonist 70 pM Ala-6,12 human orexin-A; read-out: hOX2R FLIPR IC50
Experimental: In a typical experiment the OX1 and OX2 receptor antagonistic activity of the compounds of the present invention was determined in accordance with the following experimental method. […] Within the Fluorescent Imaging Plate Reader (FLIPR, Molecular Devices), test compounds are added to the plate in a volume of 25 μl, incubated for 5 min and finally 25 μl of agonist is added. […]
propertyLabel: pIC50
On this scale, pIC50 is minus log10 of a concentration expressed in M (mol/L).

**Q:** Provide one value: measured pIC50 of CSc1c(C#N)ccnc1O[C@@H]1CC[C@@H](C)N(C(=O)c2ccccc2-n2nccn2)C1
**A:** 8.22

**Q:** Provide one value: measured pIC50 of Cc1c(C#N)ccnc1O[C@@H]1CC[C@@H](C)N(C(=O)c2ccc(F)cc2C2CC2)C1
**A:** 7.59

**Q:** Provide one value: measured pIC50 of Cc1c(C#N)ccnc1O[C@@H]1CC[C@@H](C)N(C(=O)c2cc(F)ccc2-c2cscn2)C1
**A:** 8.00

**Q:** Provide one value: measured pIC50 of COc1ccc(-c2ccccc2C(=O)N2C[C@H](Oc3nccc(C#N)c3C)CC[C@H]2C)cn1
**A:** 7.82

**Q:** Provide one value: measured pIC50 of Cc1nc(-c2ccccc2C(=O)N2C[C@H](Oc3nccc(C#N)c3C)CC[C@H]2C)no1
**A:** 7.92

**Q:** Provide one value: measured pIC50 of Cc1c(C#N)ccnc1O[C@@H]1CC[C@@H](C)N(C(=O)c2cc(Cl)ccc2-n2nccn2)C1
**A:** 6.89

**Q:** Provide one value: measured pIC50 of COc1ccc(C(=O)N2C[C@H](Oc3nccc(C#N)c3C)CC[C@H]2C)c(-n2nccn2)c1
**A:** 7.89

**Q:** Provide one value: measured pIC50 of Cc1ccc(-n2nccn2)c(C(=O)N2C[C@H](Oc3nccc(C#N)c3C)CC[C@H]2C)c1
**A:** 8.15

**Q:** Provide one value: measured pIC50 of COc1c(C#N)ccnc1O[C@@H]1CC[C@@H](C)N(C(=O)c2ccsc2-n2nccn2)C1
**A:** 8.10

**Q:** Provide one value: measured pIC50 of Cc1nc(C(=O)N2C[C@H](Oc3nccc(C#N)c3C)CC[C@H]2C)c(-c2ccccc2)s1
**A:** 7.64

* * *

systemName: human orexin-2 receptor (Homo sapiens (Human), UniProt O43614)
testProtocol: FLIPR Ca2+ Flux Assay, orexin-2 receptor
Assay type: cell-based
reportedConditions: CHO cells expressing the human orexin-2 receptor; agonist 70 pM Ala-6,12 human orexin-A; read-out: hOX2R FLIPR IC50
Would you mind telling me the reported pIC50 of each entry?
On this scale, pIC50 is minus log10 of a concentration expressed in M (mol/L).

**Q:** Provide one value: measured pIC50 of COc1ccc(C(=O)N2C[C@H](Oc3nccc(C#N)c3C)CC[C@H]2C)c(-c2cccnc2)n1 [Example 82]
**A:** 7.26

**Q:** Provide one value: measured pIC50 of Cc1c(C#N)ccnc1O[C@@H]1CC[C@@H](C)N(C(=O)c2sccc2-c2cscn2)C1 [Example 38]
**A:** 7.96

**Q:** Provide one value: measured pIC50 of Cc1nnn(-c2ccccc2C(=O)N2C[C@H](Oc3nccc(C#N)c3C)CC[C@H]2C)n1 [Example 40]
**A:** 7.96

**Q:** Provide one value: measured pIC50 of COc1c(C#N)ccnc1O[C@@H]1CC[C@@H](C)N(C(=O)c2c(F)cccc2-n2nccn2)C1 [Example 100]
**A:** 7.60

**Q:** Provide one value: measured pIC50 of CCOc1ccccc1C(=O)N1C[C@H](Oc2nccc(C#N)c2C)CC[C@H]1C [Example 19]
**A:** 8.22

**Q:** Provide one value: measured pIC50 of COc1ccc(C(=O)N2C[C@H](Oc3nccc(C#N)c3C)CC[C@H]2C)c(-c2cnn(C)c2)n1 [Example 80]
**A:** 6.77

**Q:** Provide one value: measured pIC50 of C[C@@H]1CC[C@@H](Oc2nccc(C#N)c2C#N)CN1C(=O)c1ccccc1-n1nccn1 [Example 94]
**A:** 7.40

**Q:** Provide one value: measured pIC50 of Cc1c(C#N)ccnc1O[C@@H]1CC[C@@H](C)N(C(=O)c2ccccc2OC(C)C)C1 [Example 21]
**A:** 8.10

* * *

systemName: human orexin-2 receptor (Homo sapiens (Human), UniProt O43614)
testProtocol: radioligand binding assay, orexin-2 receptor
reportedConditions: membranes prepared from CHO cells expressing the OX2 receptor; read-out: hOX2R BIND hKi
pKi: −log10 of the molar value.
Threshold check on pKi: at or above 9 gives MET, strictly below gives NOT MET.

**Q:** # check: pKi of Cc1c(C#N)ccnc1O[C@@H]1CC[C@@H](C)N(C(=O)c2c(F)cccc2-c2nccs2)C1 is greater than or equal to 9
**A:** MET

**Q:** # check: pKi of Cc1c(C#N)ccnc1O[C@@H]1CC[C@@H](C)N(C(=O)c2nscc2-n2nccn2)C1 is greater than or equal to 9
**A:** NOT MET

**Q:** # check: pKi of Cc1c(C#N)ccnc1O[C@@H]1CC[C@@H](C)N(C(=O)c2ccccc2N2CCCC2)C1 is greater than or equal to 9
**A:** NOT MET

**Q:** # check: pKi of Cc1c(C#N)ccnc1O[C@@H]1CC[C@@H](C)N(C(=O)C2=C(c3ccccn3)CCC2)C1 is greater than or equal to 9
**A:** NOT MET

**Q:** # check: pKi of Cc1noc(-c2ccccc2C(=O)N2C[C@H](Oc3nccc(C#N)c3C)CC[C@H]2C)n1 is greater than or equal to 9
**A:** MET

**Q:** # check: pKi of Cc1cccc(-n2nccn2)c1C(=O)N1C[C@H](Oc2nccc(C#N)c2C)CC[C@H]1C is greater than or equal to 9
**A:** MET

**Q:** # check: pKi of COc1ccc(C(=O)N2C[C@H](Oc3nccc(C#N)c3OC)CC[C@H]2C)c(-n2nccn2)n1 is greater than or equal to 9
**A:** NOT MET

**Q:** # check: pKi of COc1ccc(C(=O)N2C[C@H](Oc3nccc(C#N)c3C)CC[C@H]2C)c(-c2ccn(C)n2)n1 is greater than or equal to 9
**A:** NOT MET

**Q:** # check: pKi of Cc1c(C#N)ccnc1O[C@@H]1CC[C@@H](C)N(C(=O)c2ccc(F)cc2-c2nccs2)C1 is greater than or equal to 9
**A:** MET

**Q:** # check: pKi of COc1c(C#N)ccnc1O[C@@H]1CC[C@@H](C)N(C(=O)c2cc(F)ccc2-c2ncccn2)C1 is greater than or equal to 9
**A:** MET

**Q:** # check: pKi of Cc1ccc(C(=O)N2C[C@H](Oc3nccc(C#N)c3C)CC[C@H]2C)c(-c2ncccn2)c1 is greater than or equal to 9
**A:** NOT MET

**Q:** # check: pKi of COc1cc(-n2nccn2)c(C(=O)N2C[C@H](Oc3nccc(C#N)c3C)CC[C@H]2C)cn1 is greater than or equal to 9
**A:** NOT MET

**Q:** # check: pKi of CSc1c(C#N)ccnc1O[C@@H]1CC[C@@H](C)N(C(=O)c2ccccc2-n2nccn2)C1 is greater than or equal to 9
**A:** MET

**Q:** # check: pKi of COc1c(C#N)ccnc1O[C@@H]1CC[C@@H](C)N(C(=O)c2cccc(F)c2-n2nccn2)C1 is greater than or equal to 9
**A:** MET

**Q:** # check: pKi of C[C@@H]1CC[C@@H](Oc2nccc(C#N)c2C#N)CN1C(=O)c1ccccc1-n1nccn1 is greater than or equal to 9
**A:** NOT MET

**Q:** # check: pKi of COc1ccc(C(=O)N2C[C@H](Oc3nccc(C#N)c3C)CC[C@H]2C)c(N(C)C)n1 is greater than or equal to 9
**A:** NOT MET

**Q:** # check: pKi of Cc1c(C#N)ccnc1O[C@@H]1CC[C@@H](C)N(C(=O)c2nscc2-c2ccccc2)C1 is greater than or equal to 9
**A:** NOT MET

**Q:** # check: pKi of CCc1c(C#N)ccnc1O[C@@H]1CC[C@@H](C)N(C(=O)c2ccccc2-n2nccn2)C1 is greater than or equal to 9
**A:** MET

* * *

systemName: human orexin-2 receptor (Homo sapiens (Human))
testProtocol: radioligand binding assay, orexin-2 receptor
reportedConditions: membranes prepared from CHO cells expressing the OX2 receptor; read-out: hOX2R BIND hKi
Procedure: In a typical experiment the OX1 and OX2 receptor antagonistic activity of the compounds of the present invention was determined in accordance with the following experimental method. […] Within the Fluorescent Imaging Plate Reader (FLIPR, Molecular Devices), test compounds are added to the plate in a volume of 25 μl, incubated for 5 min and finally 25 μl of agonist is added. […]
The threshold is 1 nM. Values of Ki beneath it are tagged condition met; values meeting or exceeding it are tagged condition not met.

**Q:** Confirm or reject: Ki of COc1ccc(C(=O)N2C[C@H](Oc3nccc(C#N)c3C)CC[C@H]2C)c(C2CC2)n1 lies strictly below 1 nM
**A:** condition not met

**Q:** Confirm or reject: Ki of CCOc1ncccc1C(=O)N1C[C@H](Oc2nccc(C#N)c2C)CC[C@H]1C lies strictly below 1 nM
**A:** condition not met

**Q:** Confirm or reject: Ki of CSc1ccccc1C(=O)N1C[C@H](Oc2nccc(C#N)c2C)CC[C@H]1C lies strictly below 1 nM
**A:** condition not met

**Q:** Confirm or reject: Ki of Cc1c(C#N)ccnc1O[C@@H]1CC[C@@H](C)N(C(=O)c2sccc2-c2nccs2)C1 lies strictly below 1 nM
**A:** condition not met

**Q:** Confirm or reject: Ki of COc1ccc(C(=O)N2C[C@H](Oc3nccc(C#N)c3C)CC[C@H]2C)c(-c2ccccc2)n1 lies strictly below 1 nM
**A:** condition not met

**Q:** Confirm or reject: Ki of Cc1cccc(C(=O)N2C[C@H](Oc3nccc(C#N)c3C)CC[C@H]2C)c1-n1nccn1 lies strictly below 1 nM
**A:** condition met

Reference for the values: patent US9546152B2
